# System: Medicago sativa
# Assay: Herbicidal activity against Medicago sativa (alfalfa) assessed as herbicidal damage at 1.5 kg/ha measured after postemergence treatment
# Format: functional
# Study Conditions: post-emergence
Measured inhibition at 1500 g/ha accompanies every entry in the list below.
Readout Name: inhibition at 1500 g/ha (%)

- Compound: "CCOCCOC(=O)/C(C#N)=C(\\NCc1ccco1)C(C)C"
  Quantitative Result: 26.3
- Compound: "CCOCCOC(=O)/C(C#N)=C(/C)NCc1ccco1"
  Quantitative Result: 5.4
- Compound: "CCOCCOC(=O)/C(C#N)=C(/NCc1ccoc1)SC"
  Quantitative Result: 31.1
- Compound: "CCC/C(NCC1CCOC1)=C(\\C#N)C(=O)OCCOCC (configuration not stated)"
  Quantitative Result: 11.4
- Compound: "CCOCCOC(=O)/C(C#N)=C(\\NCC1CCOC1)C(C)C (configuration not stated)"
  Quantitative Result: 41.3
- Compound: "CCOCCOC(=O)/C(C#N)=C(\\NCc1ccoc1)C(C)C"
  Quantitative Result: 13.2
- Compound: "CCOCCOC(=O)/C(C#N)=C(/C)NCc1ccoc1"
  Quantitative Result: 20.4
- Compound: "CCOCCOC(=O)/C(C#N)=C(/NCC1CCCO1)SC (configuration not stated)"
  Quantitative Result: 23.4
- Compound: "CCOCCOC(=O)/C(C#N)=C(/CC)NCC1CCCO1 (configuration not stated)"
  Quantitative Result: 22.2
- Compound: "CCOCCOC(=O)/C(C#N)=C(/C)NCC1CCCO1 (configuration not stated)"
  Quantitative Result: 28.7
- Compound: "CCOCCOC(=O)/C(C#N)=C(/NCc1ccc(Cl)nc1)SC"
  Quantitative Result: 41.3
- Compound: "CCOCCOC(=O)/C(C#N)=C(/CC)NCc1ccoc1"
  Quantitative Result: 0

----------
# System: Brassica napus
# Assay: Herbicidal activity against rape Brassica napus (oilseed rape) assessed as herbicidal damage at 1.5 kg/ha measured after postemergence treatment
# Assay type: functional
# Study Conditions: post-emergence

- Molecule: "CCC/C(NCc1ccco1)=C(\\C#N)C(=O)OCCOCC"
  inhibition at 1500 g/ha, %: 22.9
- Molecule: "CCOCCOC(=O)/C(C#N)=C(/NCC1CCCO1)SC (configuration not stated)"
  inhibition at 1500 g/ha, %: 47.5
- Molecule: "CCOCCOC(=O)/C(C#N)=C(/CC)NCC1CCCO1 (configuration not stated)"
  inhibition at 1500 g/ha, %: 63.7
- Molecule: "CCOCCOC(=O)/C(C#N)=C(/NCc1ccco1)SC"
  inhibition at 1500 g/ha, %: 22.9
- Molecule: "CCOCCOC(=O)/C(C#N)=C(\\NCC1CCOC1)C(C)C (configuration not stated)"
  inhibition at 1500 g/ha, %: 88.2
- Molecule: "CCOCCOC(=O)/C(C#N)=C(/CC)NCc1ccco1"
  inhibition at 1500 g/ha, %: 47.9
- Molecule: "CCOCCOC(=O)/C(C#N)=C(/NCc1ccc(Cl)nc1)SC"
  inhibition at 1500 g/ha, %: 100
- Molecule: "CCOCCOC(=O)/C(C#N)=C(/C)NCC1CCOC1 (configuration not stated)"
  inhibition at 1500 g/ha, %: 52.3
- Molecule: "CCC/C(NCc1ccoc1)=C(\\C#N)C(=O)OCCOCC"
  inhibition at 1500 g/ha, %: 25.2
- Molecule: "CCOCCOC(=O)/C(C#N)=C(\\NCc1ccoc1)C(C)C"
  inhibition at 1500 g/ha, %: 51.9
- Molecule: "CCOCCOC(=O)/C(C#N)=C(/C)NCc1ccco1"
  inhibition at 1500 g/ha, %: 20.1
- Molecule: "CCOCCOC(=O)/C(C#N)=C(/NCc1ccoc1)SC"
  inhibition at 1500 g/ha, %: 30.8
- Molecule: "CCOCCOC(=O)/C(C#N)=C(\\NCC1CCCO1)C(C)C (configuration not stated)"
  inhibition at 1500 g/ha, %: 97.2
- Molecule: "CCOCCOC(=O)/C(C#N)=C(/C)NCC1CCCO1 (configuration not stated)"
  inhibition at 1500 g/ha, %: 57.9
- Molecule: "CCOCCOC(=O)/C(C#N)=C(\\NCc1ccco1)C(C)C"
  inhibition at 1500 g/ha, %: 56.3
- Molecule: "CCOCCOC(=O)/C(C#N)=C(/NCC1CCOC1)SC (configuration not stated)"
  inhibition at 1500 g/ha, %: 50.5
- Molecule: "CCOCCOC(=O)/C(C#N)=C(/CC)NCC1CCOC1 (configuration not stated)"
  inhibition at 1500 g/ha, %: 68
